- Measured On: Glutamate receptor ionotropic, NMDA 2B (Mus musculus, UniProt P35438+Q01097)
- Sequence (Q01097 whole entry, one chain of several): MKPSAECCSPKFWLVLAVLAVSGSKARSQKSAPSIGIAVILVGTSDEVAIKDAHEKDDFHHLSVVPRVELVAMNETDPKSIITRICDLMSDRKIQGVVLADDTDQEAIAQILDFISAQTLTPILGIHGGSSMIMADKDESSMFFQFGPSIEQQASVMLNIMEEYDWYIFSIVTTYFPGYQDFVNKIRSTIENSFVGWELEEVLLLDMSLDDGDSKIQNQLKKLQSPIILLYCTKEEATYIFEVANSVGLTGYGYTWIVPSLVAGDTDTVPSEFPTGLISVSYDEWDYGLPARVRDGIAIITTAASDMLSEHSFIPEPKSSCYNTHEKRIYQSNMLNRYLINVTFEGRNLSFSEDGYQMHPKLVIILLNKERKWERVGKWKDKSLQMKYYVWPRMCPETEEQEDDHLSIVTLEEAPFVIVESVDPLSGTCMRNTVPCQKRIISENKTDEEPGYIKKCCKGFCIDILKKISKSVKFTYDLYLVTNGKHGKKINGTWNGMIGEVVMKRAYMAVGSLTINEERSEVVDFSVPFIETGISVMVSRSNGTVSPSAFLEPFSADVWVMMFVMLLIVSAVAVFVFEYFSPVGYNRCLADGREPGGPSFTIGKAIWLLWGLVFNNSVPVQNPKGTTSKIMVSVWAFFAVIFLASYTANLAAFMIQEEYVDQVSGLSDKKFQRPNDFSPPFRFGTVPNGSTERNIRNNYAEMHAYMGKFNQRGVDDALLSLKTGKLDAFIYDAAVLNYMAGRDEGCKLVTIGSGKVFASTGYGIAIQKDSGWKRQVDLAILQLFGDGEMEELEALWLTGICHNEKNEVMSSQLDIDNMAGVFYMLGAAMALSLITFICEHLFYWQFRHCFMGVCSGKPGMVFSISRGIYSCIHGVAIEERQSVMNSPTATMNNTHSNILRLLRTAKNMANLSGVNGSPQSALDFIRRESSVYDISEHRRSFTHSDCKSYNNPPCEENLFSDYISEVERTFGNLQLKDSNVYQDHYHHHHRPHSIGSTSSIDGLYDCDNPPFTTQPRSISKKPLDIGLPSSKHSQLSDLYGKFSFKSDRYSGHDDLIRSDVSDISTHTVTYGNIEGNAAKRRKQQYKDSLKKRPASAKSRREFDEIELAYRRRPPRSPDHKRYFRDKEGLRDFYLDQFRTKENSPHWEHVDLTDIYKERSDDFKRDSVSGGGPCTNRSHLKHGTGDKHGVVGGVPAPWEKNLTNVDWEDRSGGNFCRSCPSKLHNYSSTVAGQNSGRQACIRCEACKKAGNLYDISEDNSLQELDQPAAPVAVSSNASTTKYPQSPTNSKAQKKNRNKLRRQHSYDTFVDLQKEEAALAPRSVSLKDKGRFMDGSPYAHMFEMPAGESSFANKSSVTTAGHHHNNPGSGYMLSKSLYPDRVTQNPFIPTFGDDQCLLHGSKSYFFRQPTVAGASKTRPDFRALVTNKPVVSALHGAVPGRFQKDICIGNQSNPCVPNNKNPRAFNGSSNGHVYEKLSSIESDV
- Test Details: Displacement of [3H]ifenprodil from GluN2B in mouse LTK cells assessed as inhibition constant measured after 120 mins by scintillation counting method
pKi: −log10 of the molar value.
Measured pKi, listed per entry.
Property Label: pKi

Cpd Smiles: Cc1cc(OCCN2CCOCC2)nn1-c1ccc2ccccc2c1
Measured On: Glutamate receptor ionotropic, NMDA 2B (Mus musculus, UniProt P35438+Q01097)
Property Label: pKi
Relation Symbol: <
Measured Value: 7.24
//
Cpd Smiles: C[C@@H]1CC[C@@H]2[C@@H](C1)OCO[C@]2(C)CNCCCCc1ccccc1
Measured On: Glutamate receptor ionotropic, NMDA 2B (Mus musculus, UniProt P35438+Q01097)
Property Label: pKi
Relation Symbol: =
Measured Value: 6.39
//
Cpd Smiles: C[C@@H]1CC[C@@H]2[C@@H](C1)OC(C)(C)O[C@@]2(C)CN1CCC(Cc2ccccc2)CC1
Measured On: Glutamate receptor ionotropic, NMDA 2B (Mus musculus, UniProt P35438+Q01097)
Property Label: pKi
Relation Symbol: =
Measured Value: 5.89
//
Cpd Smiles: C[C@@H]1CC[C@@H]2[C@H](C1)OCO[C@@]2(C)CN1CCC(Cc2ccccc2)CC1
Measured On: Glutamate receptor ionotropic, NMDA 2B (Mus musculus, UniProt P35438+Q01097)
Property Label: pKi
Relation Symbol: =
Measured Value: 6.69
//
Cpd Smiles: C[C@@H]1CC[C@@H]([C@](C)(O)CNCCCCc2ccccc2)[C@H](O)C1
Measured On: Glutamate receptor ionotropic, NMDA 2B (Mus musculus, UniProt P35438+Q01097)
Property Label: pKi
Relation Symbol: =
Measured Value: 6.29
//
Cpd Smiles: C[C@@H]1CC[C@@H]2[C@@H](C1)OCO[C@]2(C)CN1CCC(Cc2ccccc2)CC1
Measured On: Glutamate receptor ionotropic, NMDA 2B (Mus musculus, UniProt P35438+Q01097)
Property Label: pKi
Relation Symbol: =
Measured Value: 6.43
//
Cpd Smiles: C[C@@H]1CC[C@@H]2[C@@H](C1)OCO[C@@]2(C)CN1CCC(Cc2ccccc2)CC1
Measured On: Glutamate receptor ionotropic, NMDA 2B (Mus musculus, UniProt P35438+Q01097)
Property Label: pKi
Relation Symbol: =
Measured Value: 7.44
//
Cpd Smiles: C[C@@H]1CC[C@@H]2[C@@H](C1)OC(C)(C)O[C@]2(C)CN1CCC(Cc2ccccc2)CC1
Measured On: Glutamate receptor ionotropic, NMDA 2B (Mus musculus, UniProt P35438+Q01097)
Property Label: pKi
Relation Symbol: =
Measured Value: 6.37
//
Cpd Smiles: C[C@@H]1CC[C@@H]([C@@](C)(O)CNCCCCc2ccccc2)[C@@H](O)C1
Measured On: Glutamate receptor ionotropic, NMDA 2B (Mus musculus, UniProt P35438+Q01097)
Property Label: pKi
Relation Symbol: =
Measured Value: 5.97

The reported measurements were obtained from ChEMBL document CHEMBL5380826.
